Tested on: MS2 coat protein
protocol details: apparent KD of MS2 coat protein; designed switch direction (-1 OFF switch, 1 ON switch): -1; higher = weaker reporter binding
applied conditions: input ligand: FMN 200 uM
Mark 1 for reported apparent KD of MS2 coat protein of 40 nM or greater; mark -1 for anything smaller.

[
  {
    "chain": "GUAAACGAUGAGGAUAUAUGAUAUCAAAGCAUCAUAGAAGGCAUCACAUGAGGAUCACCCAUGUGAUCUUCUUG [Mat - Exclusion 6 - JL Mod - D30] (Eterna round: R97, puzzle: Exclusion 6)",
    "assigned class": 1
  },
  {
    "chain": "AUUUAAUUUAGCGAGAUCACAUGAGGAUCACCCAUGUAUAUAUAGGAUAUCAGCUCGAUUAGAGCUGAGAAGGAUAUAUACCGC [ExNG3/7-A1] (Eterna round: R96, puzzle: Exclusion NG 3)",
    "assigned class": 1
  },
  {
    "chain": "UACAUGAGGAUCACCCAUGUUUUGUCGUGUAUGGUAUUUAUCUAGGAUAUCAAUUUAGUCAUUUAUGAGAAGGAGAAUAUUAAU [JMF's solution 74] (Eterna round: R96, puzzle: Exclusion NG 3)",
    "assigned class": -1
  },
  {
    "chain": "GUGUAAUGUGAGGAUAUGUGUUUCGUUAGCUGCACAGAAGGCACAACAUGAGGAUCACCCAUGUGGGCAGGGCC [Eternabot (L1) Solution 10] (Eterna round: R97, puzzle: Exclusion 6)",
    "assigned class": 1
  }
]

---

Tested on: MS2 coat protein
protocol details: apparent KD of MS2 coat protein; designed switch direction (-1 OFF switch, 1 ON switch): 1; higher = weaker reporter binding
applied conditions: Eterna round: R95; input ligand: microRNA oligo, concentration not stated
Known apparent KD of MS2 coat protein of a selection of sequences
observable: apparent KD of MS2 coat protein (nM)

[
  {
    "chain": "GUGCAACCGUGUGAGGAUAUCGGUGAAUAAACAUGAGGAUCACCCAUGUCCGAAGCUCGGUUCUCCGAGAAGGCGCACAGUUGCA [Same State 2 - Mod of Erisin v.4] (puzzle: Same State 2)",
    "observable": "apparent KD of MS2 coat protein",
    "observed result": 116
  },
  {
    "chain": "AGUCCAGCCUGAGCUGGACAAAAGCAUGUACAUGAGGAUCACCCAUGUCAUGUACAAGCUUUUUGUUCGUCUUAAUA [Zipper 49 - 13] (puzzle: Sensor for hsa-mir-208a)",
    "observable": "apparent KD of MS2 coat protein",
    "observed result": 14.6
  },
  {
    "chain": "GCAGGACAUGAGGAUCACCCAUGUCUCAAAUAUUGAGGAUAUGGACACGGUAUAUCCGAACCAGAAGGCAACCUGC [SS1 Teenbexe 20] (puzzle: Same State 1)",
    "observable": "apparent KD of MS2 coat protein",
    "observed result": 47.3
  }
]

---

Known apparent KD of K4 kissing-loop reporter of a selection of sequences
Tested on: K4 kissing-loop RNA reporter;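 note: bound reporter read as fluorescence of individual clusters on recovered sequencing chips by microscopy, with normalized cluster intensities fitted with a binding model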
protocol details: apparent KD of K4 kissing-loop reporter; higher = weaker reporter binding
applied conditions: Eterna round: R107; input ligand: theophylline 20 uM

[
  {
    "chain": "AAUUAAUGUAUAGAUUAUAUACAUUAAUCAGAGGAUAUGCUUUGUUGCAGAAGGCUGAAUGCAGUGAUGUUGCAAUUUUAAUUUA [JR_SSFMNA_Sub005]",
    "apparent KD of K4 kissing-loop reporter / µM": 0.0873
  },
  {
    "chain": "UUGUGCAGCAAUCGAGUGAUGUUCGACGAUACCAGCCUCGAUAGAGGCCCUUGGCAGCGUAUCAUCACAUGCCAAGAGCUGCACU [#SwitchBubble 5]",
    "apparent KD of K4 kissing-loop reporter / µM": 0.368
  },
  {
    "chain": "GCUAUGGUAGGAAGGAGCGCUUGUUCGGUCAUAUGAGUGAUGUUCGAGACUGAGCAUUUAUAGCAGGUAGGUCGCCUACUAUAGC [Arginine B K4 10]",
    "apparent KD of K4 kissing-loop reporter / µM": 0.16
  },
  {
    "chain": "GGUAGCAUGGCGGCCGCCACUUUGCACCUUUUCUUUUCUUUUGGUGCUUCACGAGUGAUGUUCGUAAGGACCGGGCCAUGCUACC",
    "apparent KD of K4 kissing-loop reporter / µM": 0.213
  },
  {
    "chain": "UGUGUUUACCUGACUCAGUGAUGUUGAGAAGGAGCGUGCAAAGGCACAGGUAGGUCGCUCAACCUAAAUUCAGGUGAGCACUAAA",
    "apparent KD of K4 kissing-loop reporter / µM": 0.31
  },
  {
    "chain": "AAUAAGGUCGCCGAUACCAGCGCAGGCAGAGCAAAGCUCUGCCAAGUAGUGAUGUUACUGCGCCCUUGGCAGCGGUGGCACGACC [Omei KL Theo B SS C v3]",
    "apparent KD of K4 kissing-loop reporter / µM": 0.123
  },
  {
    "chain": "UCCUGCAAUCGGCCACGAAAGUGGAUUGAUACCAGAGUCGAAAGACUCCCUUGGCAGCGAGUGAUGUUCGAAGCAGGUAAAUAAA",
    "apparent KD of K4 kissing-loop reporter / µM": 0.514
  },
  {
    "chain": "AUCGUUGUCUGAGGAUAUCGGUUAACUGUAGUGAUGUUACAGAAAAUUCAUAUAAUAUUUUCUAUUCGAGAAGGCAGACUACGUA [JR_ExcFMNB_Sub018]",
    "apparent KD of K4 kissing-loop reporter / µM": 0.178
  },
  {
    "chain": "UGGAGUUGACGAAAAGUCAACUCCCGAGAAGGAGCGGACGAAAGUCCAGGUAGGUCGCUCGCUACCAGUGAUGUUGGUACUGAAA",
    "apparent KD of K4 kissing-loop reporter / µM": 0.16
  },
  {
    "chain": "GCGCGUCAUGUCAGCGGUGACACUGUCGAUACCAGCGCCGCAAGGCGCCCUUGGCAGCGACGUGCUGGAGUGAUGUUCCAGCGUC [#2 Exclusion - Theophylline A Attempt #22 (HarryS)]",
    "apparent KD of K4 kissing-loop reporter / µM": 0.142
  },
  {
    "chain": "UGUAUGUGAUUUGAUACCAGACCAGCUGGUGGUGUAUGAGUGAUGUUCAUGUUGGUUUGGGUCCCUUGGCAGCAAAUCGCAUACU [KL-SSTheoB30]",
    "apparent KD of K4 kissing-loop reporter / µM": 0.00888
  },
  {
    "chain": "AGUACAAUGGCGGCCGCCACUCAACAGCAGAUCAAAGAUCUGCUUCACUCAGUGAUGUUGAGUGAGAGGACCGGGCCUUUGUACA [Omei KL Tryp B SS B v4]",
    "apparent KD of K4 kissing-loop reporter / µM": 0.853
  }
]
